- Target entity: MKLP-2 (RabK6) (Homo sapiens, UniProt O95235, S2A)
- Construct: Expression clones for MKLP-21-519 (coding for residues 1 to 519) were obtained as follows; His-tag; made in house; host or cells: E. coli BL21(DE3)
- Sequence (O95235 1-519 S2A limits assumed): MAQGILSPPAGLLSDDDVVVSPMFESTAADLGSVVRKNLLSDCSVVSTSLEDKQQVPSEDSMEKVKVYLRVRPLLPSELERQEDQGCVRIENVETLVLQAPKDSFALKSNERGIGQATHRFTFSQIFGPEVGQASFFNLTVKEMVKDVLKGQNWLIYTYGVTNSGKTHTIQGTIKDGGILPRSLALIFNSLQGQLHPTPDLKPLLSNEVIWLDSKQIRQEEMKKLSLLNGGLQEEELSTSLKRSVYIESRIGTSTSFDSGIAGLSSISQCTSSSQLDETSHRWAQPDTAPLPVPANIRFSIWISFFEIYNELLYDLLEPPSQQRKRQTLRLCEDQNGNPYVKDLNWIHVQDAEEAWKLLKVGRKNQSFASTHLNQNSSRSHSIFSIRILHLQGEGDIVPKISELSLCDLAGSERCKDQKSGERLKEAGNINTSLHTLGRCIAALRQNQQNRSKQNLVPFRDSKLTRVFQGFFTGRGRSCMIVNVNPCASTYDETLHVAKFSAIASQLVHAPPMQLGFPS
- Protocol description: biochemical
- Experimental conditions: basal ATPase activity, absence of MTs; read-out: RabK6 basal IC50 X
Assignment: determine reported IC50 for the given compounds.

Looking up CC(=O)Oc1ccc2[nH]cc(/C(C#N)=C/c3cccnc3)c2c1 , I see its IC50 listed as < 5 µM

Looking up COc1ccc2[nH]cc(/C(C#N)=C/c3cc(OC)c(O)c(OC)c3)c2c1 , I see its IC50 listed as 20 to 50 µM

Looking up N#C/C(=C\c1cccnc1)c1c[nH]c2ccc(Cl)cc12 , I see its IC50 listed as < 5 µM

Looking up COc1ccc2[nH]cc(/C(C#N)=C/c3cccnc3)c2c1 , I see its IC50 listed as < 5 µM

Looking up COc1ccc2[nH]cc(/C(C#N)=C/c3ccccn3)c2c1 , I see its IC50 listed as 10 to 20 µM
